Target: Human orexin receptor type 2 (Homo sapiens, UniProt O43614)
Construct: expressed in transfected cells; host or cells: CHO cells (transient expression)
Sequence (O43614 whole entry): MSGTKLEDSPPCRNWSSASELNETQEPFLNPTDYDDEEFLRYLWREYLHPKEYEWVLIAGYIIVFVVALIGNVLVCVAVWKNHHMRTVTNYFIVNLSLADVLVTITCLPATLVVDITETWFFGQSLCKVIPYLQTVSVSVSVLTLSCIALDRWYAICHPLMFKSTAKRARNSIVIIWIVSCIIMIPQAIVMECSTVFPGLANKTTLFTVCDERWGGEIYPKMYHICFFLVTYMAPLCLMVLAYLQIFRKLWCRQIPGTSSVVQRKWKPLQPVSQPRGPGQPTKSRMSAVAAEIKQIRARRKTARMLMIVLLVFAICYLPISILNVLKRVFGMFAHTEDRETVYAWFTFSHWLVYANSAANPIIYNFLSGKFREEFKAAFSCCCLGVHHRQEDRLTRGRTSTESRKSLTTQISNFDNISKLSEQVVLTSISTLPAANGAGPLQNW
Test: Test 1: Evaluation of agonist activity for orexin receptor type 2 (aequorin luminescence, intracellular calcium mobilization in CHO cells)
Type: cell-based
Conditions: relative percentage of luminescence for the luminescence (100%) of Orexin A (100 pM); CHO cells transiently expressing human orexin receptor type 2 and apoaequorin; Orexin A Lot. 641114
Test Readout: agonist activity (%)
Form entry: value (%) — number only.

Q: Data request, read-out agonist activity (%), for CC(C)N1CCN([C@H]2CCCC(F)(F)[C@@H]2NC(=O)N2CCC(C)(c3csc(C4CC4)n3)CC2)CC1 (racemic) [Example 47]
A: 163

Q: Quick one: agonist activity (%) for CC(C)N1CCN([C@H]2CCCC(F)(F)[C@@H]2OC(=O)N2CCC(C)(c3ncn(C4CC4)n3)CC2)CC1 (racemic) [Example 13] ?
A: 56

Q: Need agonist activity (%) of CC(C)N1CCN([C@H]2CCCC(F)(F)[C@@H]2NC(=O)N2CCC(C)(c3noc([C@@H]4C[C@@H]4C)n3)CC2)CC1 [Example 69] , thanks.
A: 161

Q: Reported agonist activity (%), compound CC(C)N1CCN([C@H]2CCCC(F)(F)[C@@H]2NC(=S)N2CCC(C)(c3noc(C4CC4)n3)CC2)CC1 [Example 80] : ____
A: 178

Q: Entry Cc1ccc(C2CC=C(C(=O)N[C@@H]3[C@@H](N4CCN(C(C)C)CC4)CCCC3(F)F)CC2)cc1 (mixture of isomers) [Example 77] has what agonist activity (%)?
A: 158

Q: Field request: agonist activity (%) | item: CC(C)N1C[C@H](O[C@H]2CCCC(F)(F)[C@@H]2NC(=O)N2CCC(C)(c3noc(C4CC4)n3)CC2)[C@@H](F)C1 [Example 75]
A: 141
